The entries below come with measured abundance fitness values attached.
B1: Peroxisome proliferator-activated receptor delta, residues 71 to 145; numbered along this chain, Q03181 (parent)
chain: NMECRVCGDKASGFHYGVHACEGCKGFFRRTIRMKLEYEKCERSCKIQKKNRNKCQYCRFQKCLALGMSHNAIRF

Variants of: B1
experimental.protocol: abundance fitness (aPCA) (normalised: wild type 0, dead -1); higher = more abundant; growth selection in yeast, the domain comes from the species named
settings: Homo sapiens
quantity.measured: abundance fitness

{"columns": ["change", "obs.value"],
 "data": [
  ["C41F", -0.398],
  ["I32Q", -0.365],
  ["I32T", -0.107],
  ["F27W", -0.787],
  ["V6E", -0.561],
  ["C7E", -0.656],
  ["Q61E", -0.037],
  ["K35F", -0.339],
  ["K50N", 0.147],
  ["R43P", -0.168],
  ["C63Q", -0.698],
  ["G8C", -0.582],
  ["G26Y", 0.084],
  ["N71A", -0.036],
  ["F75C", 0.193],
  ["L66H", -0.436],
  ["L64W", -0.755],
  ["F14I", 0.002],
  ["E39I", -0.191],
  ["C58T", -0.957],
  ["R5K", 0.139],
  ["H15C", -0.044]
]}

Cited source: the Human Domainome abundance scans (Beltran et al. 2025)
